Record form. Attribute: melting point. Fill in for each entry.

Report melting point for C=CCOC(=O)NS(=O)(=O)CCc1cc(OCCCC)nn1Cc1ccc(Cl)cc1Cl [Example 137] 94 to 95 °C

Return melting point (reported value) for this compound: CCCCCS(=O)(=O)NC(=O)/C=C/c1cc(OCCCC)nn1Cc1ccc(Cl)cc1Cl [Example 98] 95 to 98 °C

Let me know recorded melting point for CCCCCS(=O)(=O)NC(=O)CCc1ccc(OCCOC)cc1OC1CCCCC1 [Example 164] , thanks. 64.1 to 65.4 °C

For the compound CCCCCS(=O)(=O)NC(=O)/C=C/c1c(C)cc(C)n1Cc1ccc(Cl)cc1Cl [Example 458] , give its reported melting point. 170 to 171 °C

Using known records, supply melting point for CCCCCS(=O)(=O)NC(=O)/C=C/c1ccc(OCCCOCC2CC2)cc1Oc1ncc(C(F)(F)F)cc1Cl [Example 259] 124 to 125 °C

Hello, please tell me recorded melting point for this one: CCCCCS(=O)(=O)NC(=O)CCc1ccc(OCCCOCCOC)cc1Oc1ncc(C(F)(F)F)cc1Cl [Example 255] 95 to 95.8 °C

Please give measured melting point of the following entry: COCCOc1ccc(/C=C/COC(=O)NS(=O)(=O)c2ccc(Cl)cc2)c(Oc2ncc(C(F)(F)F)cc2Cl)c1.O.O (hydrate or solvate) [Example 37] 174.5 °C (dec.)

Give recorded melting point. COCCOc1ccc(COC(=O)NS(=O)(=O)c2ccc(Cl)cc2)c(Oc2ncc(C(F)(F)F)cc2Cl)c1 [Example 65] 112 to 115 °C

====

- Test system: KKAy mice
- assayComment: Blood glucose and blood lipid (triglyceride) lowering action in mice
- Format: in vivo
- testContext: Mus musculus, 4TO7, po, 0.01% in powder diet, 4 to 7 days, plasma glucose relative to non-administration group = 100%, read-out: hypoglycemic action (%)
Label Satisfied when response vs control in vivo at 0.01 % >= 60%; otherwise Not satisfied.

Does CCCCCS(=O)(=O)NC(=O)/C(=C/c1ccc(OCCOC)cc1Oc1ncc(C(F)(F)F)cc1Cl)CC have a reported response vs control in vivo at 0.01 % of at least 60%? Not satisfied

// inclusive: response vs control in vivo at 0.01 % at least 60%? input: CCCCCS(=O)(=O)NC(=O)/C=C/c1ccc(Oc2ncccn2)cc1Oc1ncc(C(F)(F)F)cc1Cl Not satisfied

Exam item: decide whether the reported response vs control in vivo at 0.01 % for CCOCC(COCC)Oc1ccc(CCCOC(=O)NS(=O)(=O)NCCOC(C)C)c(Oc2ncc(C(F)(F)F)cc2Cl)c1 is at least 60%. Not satisfied

Quick check, response vs control in vivo at 0.01 % >= 60%? CCCCCS(=O)(=O)NC(=O)/C(C)=C/c1ccc(OCCOC)cc1Oc1ncc(C(F)(F)F)cc1Cl Not satisfied

Determine whether measured response vs control in vivo at 0.01 % meets or exceeds 60% for COCCOc1ccc(CCCOC(=O)NS(=O)(=O)NCCOC(C)C)c(Oc2ncc(C(F)(F)F)cc2Cl)c1 Not satisfied

State whether the measured response vs control in vivo at 0.01 % reaches 60%, counting equality as reaching it, for COCCOc1ccc(CCCOC(=O)NS(=O)(=O)NCCc2cccs2)c(Oc2ncc(C(F)(F)F)cc2Cl)c1 Not satisfied

// inclusive: response vs control in vivo at 0.01 % at least 60%? input: CCCCCS(=O)(=O)NC(=O)/C=C/c1ccc(OCC(C)(C)O)cc1Oc1ncc(C(F)(F)F)cc1Cl Satisfied

Say whether CCCCCS(=O)(=O)NC(=O)C(C)(C)Cc1ccc(OCCOC)cc1Oc1ncc(C(F)(F)F)cc1Cl shows response vs control in vivo at 0.01 % of 60% or more. Not satisfied

Entry CC(C)CCS(=O)(=O)NC(=O)/C=C/c1cc(OC(C)C)nn1Cc1ccc(C(F)(F)F)cc1Cl : is its response vs control in vivo at 0.01 % no less than 60%? Not satisfied

Dear colleague, could you confirm whether CCCCCS(=O)(=O)NC(=O)/C=C/c1cc(C2CC2)nn1Cc1ccc(C(F)(F)F)cc1Cl has response vs control in vivo at 0.01 % at or above 60%? Satisfied

Check the entry CCCCCS(=O)(=O)NC(=O)/C=C/c1ccc(OCCOC2CC2)cc1Oc1ncc(C(F)(F)F)cc1Cl : does response vs control in vivo at 0.01 % equal or exceed 60%? Satisfied

# check: response vs control in vivo at 0.01 % of CCCCCS(=O)(=O)NC(=O)/C=C/c1ccc(OC(COCC)COCC)cc1Oc1ncc(C(F)(F)F)cc1Cl is greater than or equal to 60% Satisfied

Identify whether the reported response vs control in vivo at 0.01 % of the following molecule is 60% or greater: CCCCCS(=O)(=O)NC(=O)C(Cc1ccc(OCCOC)cc1Oc1ncc(C(F)(F)F)cc1Cl)OC (stereo not shown) Not satisfied

Check this molecule for response vs control in vivo at 0.01 % at or above 60%: CCCCCS(=O)(=O)NC(=O)CCc1cc(OCCCC)nn1Cc1ccc(Cl)cc1Cl Not satisfied

For this molecule, is measured response vs control in vivo at 0.01 % 60% or higher? CCCCCNS(=O)(=O)NC(=O)CCc1ccc(OCCOC)cc1Oc1ncc(C(F)(F)F)cc1Cl Not satisfied

Assess whether reported response vs control in vivo at 0.01 % for COCCOc1ccc(CCCOC(=O)NS(=O)(=O)NCCOC(C)C)c(Oc2ncc(Cl)cc2Cl)c1 sits at 60% or higher. Not satisfied

Does CC(C)CCS(=O)(=O)NC(=O)/C=C/c1cc(OCC2CC2)nn1Cc1ccc(C(F)(F)F)cc1Cl have a reported response vs control in vivo at 0.01 % of at least 60%? Not satisfied

Does COCCOc1ccc(CCCOC(=O)NS(=O)(=O)NC2CCC(C)CC2)c(Oc2ncc(C(F)(F)F)cc2Cl)c1 (stereo not shown) have a reported response vs control in vivo at 0.01 % of at least 60%? Not satisfied

====

propertyName: melting point

Output melting point of CCCCCS(=O)(=O)NC(=O)/C=C/c1cc(OCC2(C)COC2)nn1Cc1ccc(C(F)(F)F)cc1Cl [Example 113] 144 to 147 °C

Give melting point for the following compound: CCN(CC)C(=O)COc1ccc(CCC(=O)NS(=O)(=O)CCC(C)C)c(Oc2ncc(C(F)(F)F)cc2Cl)c1 [Example 45] 123 to 125 °C

Retrieve melting point measured for CCCCCS(=O)(=O)NC(=O)OCc1ccc(OC(C)C)cc1Oc1ncc(C(F)(F)F)cc1Cl [Example 63] and print it. 70 to 73 °C

Item COCCOc1ccc(/C=C/C(=O)NS(=O)(=O)c2ccccn2)c(Oc2ncc(C(F)(F)F)cc2Cl)c1 [Example 239] : provide melting point 164 to 165 °C

Please report the measured melting point for CCCCCS(=O)(=O)NC(=O)CCc1ccc(OC(C)C)cc1OCc1ccc(Cl)cc1Cl [Example 42] 120 to 120.5 °C

Note down melting point recorded for CC(C)Oc1cc(CCC(=O)NS(=O)(=O)C(C)C)n(Cc2ccc(Cl)cc2Cl)n1 [Example 89] 135 to 136 °C

Supply melting point value. Item: CCOC(=O)c1cnc(Oc2cc(OCCOC)ccc2CCCOC(=O)NCC2CC2)c(Cl)c1 [Example 465] 94.6 to 94.8 °C

====

Can you tell me melting point for the items I'm about to list?

Tell us which melting point value is on record for COCCCOc1ccc(CCCOC(=O)NS(=O)(=O)NCCOC(C)C)c(Oc2ncc(C(F)(F)F)cc2Cl)c1 [Example 474] 67.4 to 68 °C

Entry COCCCS(=O)(=O)NC(=O)CC(C)c1ccc(OCCOC)cc1Oc1ncc(C(F)(F)F)cc1Cl (stereo not drawn) [Example 78] needs its melting point filled in; supply it. 107 to 109 °C

Identify measured melting point corresponding to COCCCS(=O)(=O)NC(=O)CCc1cc(OCC2CC2)nn1Cc1ccc(C(F)(F)F)cc1Cl [Example 120] 152 to 154 °C

Report melting point for CCCCCS(=O)(=O)NC(=O)/C=C/c1ccc(OCCOCCOC)cc1Oc1ncc(C(F)(F)F)cc1Cl [Example 256] 81 to 83 °C

Give reported melting point value for CCCCN(C(=O)CCc1ccc(OCCOC)cc1Oc1ncc(C(F)(F)F)cc1Cl)S(N)(=O)=O [Example 212] 102 to 103 °C

Note down melting point recorded for CCCCCS(=O)(=O)NC(=O)CCc1ccc(OCCOCCOC)cc1Oc1ncc(C(F)(F)F)cc1Cl [Example 257] 76 to 77.5 °C

Give melting point for CCCCCS(=O)(=O)NC(=O)/C=C/c1cc(OCCOC)nn1Cc1ccc(Cl)cc1Cl [Example 109] 82 to 85 °C

Fill in melting point for record CCCCOc1cc(CCS(=O)(=O)NC(=O)OCC(C)C)n(Cc2ccc(Cl)cc2Cl)n1 [Example 133] 114 to 116 °C

In one line, give reported melting point of the entry COCCOc1ccc(COC(=O)NS(=O)(=O)CCC(C)C)c(Oc2ncc(C(F)(F)F)cc2Cl)c1 [Example 59] . 122 to 124 °C

Quote melting point reported for CCCCS(=O)(=O)NC(=O)OCCCc1ccc(OCCOC)cc1Oc1ncc(C(F)(F)F)cc1Cl.O (hydrate or solvate) please. 94 to 96 °C

Fill in reported melting point for this entry: CC(C)Oc1cc(CCC(=O)NS(=O)(=O)C2CCCCC2)n(Cc2ccc(Cl)cc2Cl)n1 [Example 90] 137 to 138 °C

Give melting point for CCCCCS(=O)(=O)NC(=O)/C=C/c1ccc(Oc2ncccn2)cc1Oc1ncc(C(F)(F)F)cc1Cl [Example 197] 80.5 to 82.5 °C

Identify measured melting point associated with COCCOc1ccc(/C=C(\C)C(=O)NS(=O)(=O)C(F)(F)F)c(Oc2ncc(C(F)(F)F)cc2Cl)c1 [Example 245] 146 to 147 °C

# return recorded melting point for input C/C(=C\c1ccc(OC(C)C)cc1Oc1ncc(C(F)(F)F)cc1Cl)C(=O)NS(=O)(=O)NCCc1ccccc1 [Example 220] 147 to 147.5 °C

Supply reported melting point belonging to this compound: CCCCCS(=O)(=O)NC(=O)CCc1cc(OCCCC)nn1Cc1ccc(C(F)(F)F)cc1Cl [Example 107] 131 to 133 °C

Look up melting point of COCCOc1ccc(/C=C/C(=O)NS(=O)(=O)c2ccc(C)cc2)c(Oc2ncc(C(F)(F)F)cc2Cl)c1 [Example 236] and report it. 102.5 to 106.5 °C

Assign melting point to the following record: CCCCOC(=O)NS(=O)(=O)CCc1cc(OCCCC)nn1Cc1ccc(Cl)cc1Cl [Example 129] 108 to 111 °C

Fill in reported melting point for this entry: CCCCCS(=O)(=O)NC(=O)CCc1ccc(OCCOC)cc1Oc1ccccc1 [Example 219] 70.4 to 70.5 °C
